assay: Toxicity liver stage against HepG2, at 10uM; assay type: cell-based; design: test concentration 10 uM, cell line HepG2-A16-CD81EGFP; details: human, HepG2-A16-CD81EGFP cells; read-out: INHIBITION
Could you please report measured cytotoxicity at 10 µM for the items listed next?
Please respond with the number in % and leave the unit unwritten.

Ask: Field request: cytotoxicity at 10 µM | item: CC(C)Nc1nc2c(cc1C(=O)N(C)C)CCNCC2
Reply: -4.99

Ask: Field request: cytotoxicity at 10 µM | item: COc1ccccc1S(=O)(=O)Nc1cnc(O)cc1C
Reply: -13.2

Ask: Field request: cytotoxicity at 10 µM | item: O=C(c1ccno1)N1CCn2cc(CN3CCCCC3)nc2C1
Reply: -77.2

Ask: Field request: cytotoxicity at 10 µM | item: CC(C)COc1cccc(-c2nc3c([nH]2)CCNC3)c1
Reply: 4.48

Ask: Field request: cytotoxicity at 10 µM | item: COc1cc(CNCCc2cc(F)cc3c2OCOC3)cc(OC)c1
Reply: -1.51

Ask: Field request: cytotoxicity at 10 µM | item: CSc1nccn1-c1cccc(C(=O)NCC2CC2)c1
Reply: -10.6

Ask: Field request: cytotoxicity at 10 µM | item: Clc1cccc(-n2cnnn2)c1N1CCCC1
Reply: 9.35

Ask: Field request: cytotoxicity at 10 µM | item: Cc1nc2c(c(NCC(=O)NC(C)C)n1)Cc1ccccc1OC2
Reply: 4.81

Ask: Field request: cytotoxicity at 10 µM | item: CC(C)OC(=O)N1CCCCC1CCn1cccn1 (stereo not drawn)
Reply: -1.17

Ask: Field request: cytotoxicity at 10 µM | item: O=C1CC(c2cccnc2)C2(CCN(S(=O)(=O)C3CC3)CC2)N1 (stereo not drawn)
Reply: -2.29

Ask: Field request: cytotoxicity at 10 µM | item: CC(=O)N1CCN(C(=O)c2[nH]nnc2Nc2ccccc2F)CC1
Reply: 2.1

Ask: Field request: cytotoxicity at 10 µM | item: CN(C)C(=O)CC1CC2(CCNCC2)c2cc(F)ccc21 (stereo not drawn)
Reply: 6.54

Ask: Field request: cytotoxicity at 10 µM | item: CC(C)c1nc(/C=C/c2cnn(-c3ccccc3)c2)ncc1C(=O)O
Reply: -11.3

Ask: Field request: cytotoxicity at 10 µM | item: COC(=O)c1ccc2c(-c3ccnc(N[C@@H](C)CO)n3)c[nH]c2c1
Reply: -5.94

Ask: Field request: cytotoxicity at 10 µM | item: CCS(=O)(=O)N1CCC(c2nccn2Cc2ccccn2)CC1
Reply: 6.27

Ask: Field request: cytotoxicity at 10 µM | item: Cc1nn(C)c(C)c1-c1nc2cc(S(=O)(=O)N3CCCC3)ccc2n1C
Reply: -6.05

Ask: Field request: cytotoxicity at 10 µM | item: O=C(Cc1ccccc1)N1CCn2cc(Cn3cncn3)nc2C1
Reply: -137

Ask: Field request: cytotoxicity at 10 µM | item: COc1ccc2cc(CN(C)C(C)c3nc(C4CC4)no3)ccc2c1 (stereo not drawn)
Reply: 3.18

Ask: Field request: cytotoxicity at 10 µM | item: CSc1nccn1-c1cccc(C(=O)NCCC(=O)NC(C)C)c1
Reply: 0.153

Ask: Field request: cytotoxicity at 10 µM | item: Cc1nc(CN(C)S(=O)(=O)c2ccccc2Br)no1
Reply: 6.2

Ask: Field request: cytotoxicity at 10 µM | item: CCCn1ccnc1CNC(=O)C1COc2cc(OC)ccc2C1 (stereo not drawn)
Reply: 1.61

Ask: Field request: cytotoxicity at 10 µM | item: O=C(N1CC(c2cccnc2)C1)C1(c2ccc(F)cc2)CCOCC1
Reply: -14.5

Ask: Field request: cytotoxicity at 10 µM | item: O=S1(=O)CCC(N2CCN(c3cc(C(F)(F)F)ccn3)CC2)C1 (stereo not drawn)
Reply: -3.97

Ask: Field request: cytotoxicity at 10 µM | item: Cc1cc(CNCC2(O)CCOCC2)ccc1Br
Reply: -0.378

Ask: Field request: cytotoxicity at 10 µM | item: Fc1cnc(N2CCN3C[C@H](Oc4cncnc4)C[C@H]3C2)nc1
Reply: -5.38

Ask: Field request: cytotoxicity at 10 µM | item: O=C(CCN1CCOC(Cn2cccn2)C1)NC1CCCCC1 (stereo not drawn)
Reply: -6.28

Ask: Field request: cytotoxicity at 10 µM | item: Cc1occc1C(=O)N1C[C@H]2CCCC(OCc3cccnc3)[C@H]2C1 (stereo partly drawn)
Reply: 2.72

Ask: Field request: cytotoxicity at 10 µM | item: Nc1nccc(NCc2cc3n(n2)CCCN(C(=O)C2CCC2)C3)n1
Reply: -6.49

Ask: Field request: cytotoxicity at 10 µM | item: CCC(C)NC(=O)Nc1cccc(OC)c1 (stereo not drawn)
Reply: 0.554

Ask: Field request: cytotoxicity at 10 µM | item: COc1ccc(C(C)NC(=O)Cn2ccc(=O)n(C)c2=O)cc1OC (stereo not drawn)
Reply: -9.09

Ask: Field request: cytotoxicity at 10 µM | item: Cc1cc(C)nc(N2CCC(c3noc(C)n3)CC2)n1
Reply: -9.08

Ask: Field request: cytotoxicity at 10 µM | item: CCN(CC)CCSc1nnc(N2CCN(c3ccc(F)cc3)CC2)s1
Reply: -5.12

Ask: Field request: cytotoxicity at 10 µM | item: COc1ccccc1C(O)CNC(=O)NCc1cc[nH]n1 (stereo not drawn)
Reply: -8.81

Ask: Field request: cytotoxicity at 10 µM | item: Cc1cc(C(=O)NCC(c2ccsc2)N(C)C)no1 (stereo not drawn)
Reply: -18.3

Ask: Field request: cytotoxicity at 10 µM | item: CC(=O)N1CCc2[nH]cnc2C12CCN(C(=O)Cc1cccs1)CC2
Reply: 7.2

Ask: Field request: cytotoxicity at 10 µM | item: Cn1ccc(C(=O)N2CCC(Cc3cccc4ncccc34)C2)n1 (stereo not drawn)
Reply: -4.83

Ask: Field request: cytotoxicity at 10 µM | item: Cc1n[nH]c(C)c1-c1cc(-c2cccc(O)c2)nc(N)c1C#N
Reply: 26.9

Ask: Field request: cytotoxicity at 10 µM | item: CN1CCC(c2n[nH]c(=O)n2-c2cccc(Cl)c2)CC1
Reply: 33.9

Ask: Field request: cytotoxicity at 10 µM | item: O=C(Cn1c(=O)[nH]c2cn(-c3ccccc3)c(=O)n21)NC1CCCCC1
Reply: -0.2

Ask: Field request: cytotoxicity at 10 µM | item: COc1ccc(CN(C)Cc2c(C)noc2C)c(Cl)c1OC
Reply: -1.22

Ask: Field request: cytotoxicity at 10 µM | item: NC(=O)Cn1cc(NC(=O)NCC2CCN(c3ccccc3)C2)cn1 (stereo not drawn)
Reply: 1.95

Ask: Field request: cytotoxicity at 10 µM | item: COCc1ncc(CN(CCN(C)C)Cc2ccc(C)s2)cn1
Reply: -57.1

Ask: Field request: cytotoxicity at 10 µM | item: Cn1ccnc1CN1CCC2(CCCN2c2ncccn2)CC1
Reply: 7.55

Ask: Field request: cytotoxicity at 10 µM | item: Cc1cc(CN2C[C@@H]3COC[C@]3(CNC(=O)N(C)C)C2)no1
Reply: -71.4

Ask: Field request: cytotoxicity at 10 µM | item: Cc1nc(C)c(C(=O)N2Cc3cc(F)ccc3CC2C)o1 (stereo not drawn)
Reply: 6.07

Ask: Field request: cytotoxicity at 10 µM | item: Cc1csc(NC(=O)c2cnc(C3CCCN(C)C3)cn2)n1 (stereo not drawn)
Reply: -21.3

Ask: Field request: cytotoxicity at 10 µM | item: O=C([C@H]1C[C@@H]2CCN(C3CCOCC3)C[C@H]2O1)N1CCCC1
Reply: 7.31

Ask: Field request: cytotoxicity at 10 µM | item: CCOCC(=O)NCC(C)(O)c1cc(C)oc1C (stereo not drawn)
Reply: 1.85
